target: Beta-2 adrenergic receptor (Homo sapiens, UniProt P07550); assay: Agonist activity at human beta2 adrenoceptor expressed in H292 cells assessed as increase in cAMP accumulation after 60 mins by spectrophotometry
Sequence (P07550 whole entry): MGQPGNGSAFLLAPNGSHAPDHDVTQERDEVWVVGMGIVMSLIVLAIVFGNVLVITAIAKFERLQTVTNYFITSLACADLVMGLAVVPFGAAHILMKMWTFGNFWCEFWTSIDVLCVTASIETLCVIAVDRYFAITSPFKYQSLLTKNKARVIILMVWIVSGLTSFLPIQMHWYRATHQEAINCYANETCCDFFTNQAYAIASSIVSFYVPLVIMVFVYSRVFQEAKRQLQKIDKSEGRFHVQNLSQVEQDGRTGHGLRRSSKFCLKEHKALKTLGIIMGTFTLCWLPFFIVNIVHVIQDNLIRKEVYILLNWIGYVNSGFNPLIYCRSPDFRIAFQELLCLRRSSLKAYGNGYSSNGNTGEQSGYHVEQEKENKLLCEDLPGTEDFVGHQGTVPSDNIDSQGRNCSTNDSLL
Attribute measured: EC50 (nM)

Use these answered entries as a reference point.
O=c1[nH]c2c(O)ccc(CCNCCc3ccc(CNCCc4ccccc4F)cc3)c2s1 = 79.4
O=c1[nH]c2c(O)ccc(CCNCCc3ccc(CNCCc4ccccn4)cc3)c2s1 = 158
O=c1[nH]c2c(O)ccc([C@@H](O)CNCCOc3cccc(CNCCc4ccccc4F)c3)c2s1 = 2.51
COCCNCc1ccc(CCNC[C@H](O)c2ccc(O)c3[nH]c(=O)sc23)cc1 = 15.8
COc1ccccc1CNCc1ccc(CCNC[C@H](O)c2ccc(O)c3[nH]c(=O)sc23)cc1 = 3.16
O=c1[nH]c2c(O)ccc([C@@H](O)CNCCc3cccc(CNCCCc4ccccc4)c3)c2s1 = 0.501

1 = O=c1[nH]c2c(O)ccc([C@@H](O)CNCCc3cccc(CNCCc4ccccn4)c3)c2s1
2 = O=c1ccc2c([C@@H](O)CNCCc3cccc(CNCCc4ccccn4)c3)ccc(O)c2[nH]1
3 = Cc1cccc2c(CCNCc3cccc(CCNC[C@H](O)c4ccc(O)c5[nH]c(=O)sc45)c3)c[nH]c12
Input line: // ascending sort on recorded EC50 Thanks in advance for listing the labels in the requested order.
Output line: 3, 1, 2
(3: 0.316 nM, 1: 0.501 nM, 2: 2.51 nM)
